- assayed target: human PDE4B1 (Homo sapiens (Human), UniProt Q07343)
- Sequence (Q07343 whole entry): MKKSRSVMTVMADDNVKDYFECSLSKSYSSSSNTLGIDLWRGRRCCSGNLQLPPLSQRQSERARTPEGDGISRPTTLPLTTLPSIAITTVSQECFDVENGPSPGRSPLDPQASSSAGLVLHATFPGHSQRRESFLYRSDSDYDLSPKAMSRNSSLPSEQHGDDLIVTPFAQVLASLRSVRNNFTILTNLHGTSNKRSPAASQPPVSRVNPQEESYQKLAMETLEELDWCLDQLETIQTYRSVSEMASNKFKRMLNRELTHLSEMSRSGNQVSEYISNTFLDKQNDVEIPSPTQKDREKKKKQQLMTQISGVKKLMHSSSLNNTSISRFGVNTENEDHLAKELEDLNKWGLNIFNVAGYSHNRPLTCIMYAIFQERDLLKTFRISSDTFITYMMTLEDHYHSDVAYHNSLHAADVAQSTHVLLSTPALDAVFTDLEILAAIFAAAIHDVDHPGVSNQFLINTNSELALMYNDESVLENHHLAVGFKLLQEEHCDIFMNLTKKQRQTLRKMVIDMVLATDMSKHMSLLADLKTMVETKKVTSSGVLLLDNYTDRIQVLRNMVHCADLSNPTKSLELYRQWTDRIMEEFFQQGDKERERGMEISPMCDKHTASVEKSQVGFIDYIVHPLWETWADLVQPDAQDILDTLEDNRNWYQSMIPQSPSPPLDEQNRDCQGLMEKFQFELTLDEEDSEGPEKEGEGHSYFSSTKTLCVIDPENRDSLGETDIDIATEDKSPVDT
- protocol description: cAMP HTRF assay to determine the activity of hPDE4B1
- Type: biochemical
- experimental setup: IC50 inhibition of PDE4B; human recombinant PDE4B1, cAMP HTRF assay
Quick reference: IC50 of the listed items.

INSERT INTO assay_data (molecular_string, parameter_measured, reported_value) VALUES
  ('COc1ccc(C(N)=O)c(-c2cnc(N3CC4(CC4)c4ccc(C(=O)N5CCNCC5)cc43)nc2)c1', 'IC50', '1 to 10 µM'),
  ('O=C(c1ccc2c(c1)N(c1ncc(-c3ccccc3F)cn1)CC21CC1)N1CC[C@H](O)C1', 'IC50', '0.1 to 1 µM');

The recorded IC50 for entry O=C(c1ccc2c(c1)N(c1ncc(-c3ccccc3F)cn1)CC21CC1)N1CCCC2(COC2)C1 equals 1 to 10 µM

The recorded IC50 for entry O=C(c1ccc2c(c1)N(c1ncc(-c3ccccc3F)cn1)CC21CC1)N1CC2(COC2)C1 equals 1 to 10 µM

The recorded IC50 for entry Cn1cc(-c2cnc(N3CC4(CC4)c4ccc(C(=O)N5CCOCC5)cc43)nc2)cn1 equals < 0.1 µM

====

- assayed target: human PDE4B1 (Homo sapiens (Human))
- protocol description: TR-FRET assay using the LANCE Ultra cAMP kit to determine the activity of hPDE4B1
- Assay type: biochemical
- experimental setup: IC50 inhibition of PDE4B, mean
parameter measured: IC50

INSERT INTO measurements (molecule, reported_value) VALUES
  ('O=C(c1ccc2c(c1)N(c1ncc(-c3ccccc3F)cn1)CC21CC1)N1CCC2(CCCN2)C1 (stereo not shown)', '0.1 to 1 µM'),
  ('O=C(c1ccc2c(c1)N(c1ncc(-c3cc(C4(O)CC4)ccn3)cn1)CC21CC1)N1CCOCC1', '< 0.1 µM'),
  ('CC(O)c1cccc(-c2cnc(N3CC4(CC4)c4ccc(C(=O)N(C)CCO)cc43)nc2)c1 (stereo not shown)', '< 0.1 µM');

The recorded IC50 for entry CN(CCO)C(=O)c1ccc2c(c1)N(c1ncc(-c3cc(C4CC4)ccn3)cn1)CC21CC1 equals < 0.1 µM

====

- assayed target: human PDE4B1 (Homo sapiens (Human))
- protocol description: TR-FRET assay using the LANCE Ultra cAMP kit to determine the activity of hPDE4B1
- Format: biochemical
- experimental setup: IC50 inhibition of PDE4B, mean
Quick reference: IC50 of the listed items.

INSERT INTO assay_data (compound, parameter_measured, reported_value) VALUES
  ('CN(CCO)C(=O)c1ccc2c(c1)N(c1ncc(-c3nc(CO)cs3)cn1)CC21CC1', 'IC50', '< 0.1 µM');

The recorded IC50 for entry COc1ccnc(-c2cnc(N3CC4(CC4)c4ccc(C(=O)N(C)CCO)cc43)nc2)c1 equals < 0.1 µM

The recorded IC50 for entry Cc1ccnc(-c2cnc(N3CC4(CC4)c4ccc(C(=O)N(C)C)cc43)nc2)c1 equals < 0.1 µM

The recorded IC50 for entry CN(CCO)C(=O)c1ccc2c(c1)N(c1ncc(-c3cccc(O)n3)cn1)CC21CC1 equals < 0.1 µM

The recorded IC50 for entry O=C(c1ccc2c(c1)N(c1ncc(-c3cc(N4CCCC4)ccn3)cn1)CC21CC1)N1CCOCC1 equals < 0.1 µM

The recorded IC50 for entry CCc1ccnc(-c2cnc(N3CC4(CC4)c4ccc(C(=O)N5C[C@@H]6C[C@H]5CN6)cc43)nc2)c1 equals < 0.1 µM

The recorded IC50 for entry O=C(c1ccc2c(c1)N(c1ncc(-c3cccc(O)c3)cn1)CC21CC1)N1CC2CC1CN2 (centres unmarked) equals < 0.1 µM

The recorded IC50 for entry CC(=O)Nc1ccnc(-c2cnc(N3CC4(CC4)c4ccc(C(=O)N5CCOCC5)cc43)nc2)c1 equals < 0.1 µM

====

- assayed target: human PDE4B1 (Homo sapiens (Human))
- protocol description: cAMP HTRF assay to determine the activity of hPDE4B1
- Format: biochemical
- experimental setup: IC50 inhibition of PDE4B; human recombinant PDE4B1, cAMP HTRF assay
parameter measured: IC50

Worked examples follow.
INSERT INTO assay_data (compound, reported_value) VALUES
  ('O=C1CN(C(=O)c2ccc3c(c2)N(c2ncc(-c4cccnc4F)cn2)CC32CC2)CCN1 [Compound 176]', '< 0.1 µM'),
  ('O=C(c1ccc2c(c1)N(c1ncc(-c3cncc(F)c3)cn1)CC21CC1)N1CCOCC1 [Compound 157]', '< 0.1 µM'),
  ('O=C(c1ccc2c(c1)N(c1ncc(-c3ccccc3Cl)cn1)CC21CC1)N1CCOCC1 [Compound 6]', '0.1 to 1 µM'),
  ('Cn1ccc(-c2cnc(N3CC4(CC4)c4ccc(C(=O)N5CCOCC5)cc43)nc2)c1 [Compound 136]', '< 0.1 µM'),
  ('O=C(c1ccc2c(c1)N(c1ncc(-c3ccccc3F)cn1)CC21CC1)N1CC2CC1CN2 (stereo not shown) [Compound 107]', '< 0.1 µM'),
  ('O=C(c1ccc2c(c1)N(c1ncc(-c3ccccc3)cn1)CC21CC1)N1CCOCC1 [Compound 7]', '< 0.1 µM');

The recorded IC50 for entry CN(CCO)C(=O)c1ccc2c(c1)N(c1ncc(-c3cccc(F)c3)cn1)CC21CC1 [Compound 129] equals < 0.1 µM

The recorded IC50 for entry CCN1CCN(C(=O)c2ccc3c(c2)N(c2ncc(-c4ccccc4F)cn2)CC32CC2)CC1 [Compound 86] equals 0.1 to 1 µM

The recorded IC50 for entry O=C(c1cc2c(cn1)C1(CC1)CN2c1ncc(-c2ccccc2F)cn1)N1CCOCC1 [Compound 168] equals 0.1 to 1 µM

The recorded IC50 for entry N[C@@H]1CCN(C(=O)c2ccc3c(c2)N(c2ncc(-c4ccccc4)cn2)CC32CC2)C1 [Compound 108] equals < 0.1 µM

The recorded IC50 for entry O=C(c1ccc2c(c1)N(c1ncc(-c3c(F)cccc3F)cn1)CC21CC1)N1CCOCC1 [Compound 27] equals < 0.1 µM

The recorded IC50 for entry CN(Cc1ccco1)C(=O)c1ccc2c(c1)N(c1ncc(-c3ccccc3F)cn1)CC21CC1 [Compound 91] equals 0.1 to 1 µM

The recorded IC50 for entry O=C(c1ccc2c(c1)N(c1ncc(-c3ccccc3F)cn1)CC21CC1)N1CCCC(O)C1 (stereo not shown) [Compound 96] equals < 0.1 µM

====

- assayed target: human PDE4B1 (Homo sapiens (Human), UniProt Q07343)
- protocol description: cAMP HTRF assay to determine the activity of hPDE4B1
- Type: biochemical
- experimental setup: IC50 inhibition of PDE4B; human recombinant PDE4B1, cAMP HTRF assay
parameter measured: IC50

INSERT INTO results (molecular_string, assayed_target, reported_value) VALUES
  ('NC(=O)c1ccc(F)c(-c2cnc(N3CC4(CC4)c4ccc(C(=O)N5CCNCC5)cc43)nc2)c1', 'human PDE4B1 (Homo sapiens (Human), UniProt Q07343)', '< 0.1 µM');

The recorded IC50 for entry O=C(c1ccc2c(c1)N(c1ncc(-c3cc(OC(F)(F)F)ccc3F)cn1)CC21CC1)N1CCOCC1 equals 0.1 to 1 µM

The recorded IC50 for entry O=C(c1ccc2c(c1)N(c1ncc(-c3ccccn3)cn1)CC21CC1)N1CCOCC1 equals < 0.1 µM

The recorded IC50 for entry N#Cc1ccc(F)c(-c2cnc(N3CC4(CC4)c4ccc(C(=O)N5CCOCC5)cc43)nc2)c1 equals < 0.1 µM

The recorded IC50 for entry N[C@@H]1CCN(C(=O)c2ccc3c(c2)N(c2ncc(-c4cccc(F)c4F)cn2)CC32CC2)C1 equals < 0.1 µM

The recorded IC50 for entry CN(C(=O)c1ccc2c(c1)N(c1ncc(-c3ccccc3F)cn1)CC21CC1)C1CC1 equals 0.1 to 1 µM

The recorded IC50 for entry CN[C@@H]1CCN(C(=O)c2ccc3c(c2)N(c2ncc(-c4ccccc4F)cn2)CC32CC2)C1 equals < 0.1 µM

The recorded IC50 for entry O=C(c1ccc2c(c1)N(c1ncc(-c3ccc(F)cn3)cn1)CC21CC1)N1CCOCC1 equals < 0.1 µM

The recorded IC50 for entry CS(=O)(=O)c1ccc(F)c(-c2cnc(N3CC4(CC4)c4ccc(C(=O)N5CCOCC5)cc43)nc2)c1 equals < 0.1 µM

The recorded IC50 for entry O=C(c1ccc2c(c1)N(c1ncc(-c3ccc(F)c(F)c3)cn1)CC21CC1)N1CCOCC1 equals 0.1 to 1 µM

The recorded IC50 for entry NC(=O)C1CCN(C(=O)c2ccc3c(c2)N(c2ncc(-c4ccccc4F)cn2)CC32CC2)CC1 equals 1 to 10 µM

The recorded IC50 for entry CCN(C)C(=O)c1ccc2c(c1)N(c1ncc(-c3ccccc3F)cn1)CC21CC1 equals 0.1 to 1 µM

The recorded IC50 for entry O=C(c1ccc2c(c1)N(c1ncc(-c3cccc(F)c3)cn1)CC21CC1)N1CCCC1 equals < 0.1 µM

The recorded IC50 for entry O=C(c1ccc2c(c1)N(c1ncc(-c3ccnc(F)c3)cn1)CC21CC1)N1CCOCC1 equals < 0.1 µM

The recorded IC50 for entry COc1ccc(F)c(-c2cnc(N3CC4(CC4)c4ccc(C(=O)N5CCNCC5)cc43)nc2)c1 equals < 0.1 µM

The recorded IC50 for entry O=C(c1ccc2c(c1)N(c1ncc(-c3ccccc3)cn1)CC21CC1)N1CCCC1 equals < 0.1 µM
